target: Grb2 SH2 (UniProt P62993); experiment: SH2 binding enrichment of the phosphorylated peptide, bacterial display (enrichment ratio); higher = better substrate or ligand; peptides without Tyr show the background;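 also: peptide library displayed on the E. coli surface as eCPX fusions, selected cells deep-sequenced, score is each peptide's frequency after selection divided by its frequency in the input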
Sequence (P62993 whole entry, looked up, the tested form may be a part): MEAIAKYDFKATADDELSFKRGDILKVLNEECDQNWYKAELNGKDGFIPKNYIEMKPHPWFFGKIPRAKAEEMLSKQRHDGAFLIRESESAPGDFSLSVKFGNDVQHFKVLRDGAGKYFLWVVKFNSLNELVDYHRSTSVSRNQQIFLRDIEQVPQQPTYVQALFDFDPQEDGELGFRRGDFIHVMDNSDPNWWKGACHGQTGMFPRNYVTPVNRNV

| record sequence | SH2 binding enrichment |
| --- | --- |
| SQQTYYRVSNM [ABCD1_Y181] | 0.853 |
| VSNFNYFFHRE [KCNA1_Y413_YF] | 1.35 |
| DLGIQYKVLKP [CTNNA1_Y177_A179V] | 0.793 |
| ELTSKYRGGGG [HBA1_Y141_V136E] | 0.939 |
| IALSKYGRVKW [FGF6_Y186_R191W] | 1.26 |
| APEVIYATPGA [ABLtide_2014] | 0.691 |
| FADIAYSYRHG [PAH_Y166_N167S] | 0.822 |
| FAFQLYDLDPD [CHP2_Y123_R127P_YF] | 1.02 |
| APQFTYAQGGQ [FLNA_Y1763_YF] | 0.705 |
| TGDRPYVCPFD [YY1_Y383] | 0.911 |
| HYGNNYTDVLQ [MACC1_Y803_R804T] | 0.812 |
| SHLEDYPFDAE [AKR1B10_Y310_N313D] | 0.746 |
| WVYNHYRCIIW [BRCA2_Y2624_W2626C] | 0.94 |
| PEVSGYCHFAD [TG_Y234_C237Y_YF] | 0.883 |
